- runDescription: DMPK study in cynomolgus monkey
- Assay type: in vivo
- testContext: plasma, oral, 3 mg/kg; male cynomolgus monkey, single dose
measurementLabel: half-life (min)

- smiles: "O=C(O)c1cc2c(nc(CN3CC=C(c4cccc(OCc5ccc(Cl)cc5F)n4)CC3)n2C[C@@H]2CCO2)s1"
  measurementLabel: "half-life"
  unitAbbreviation: "min"
  numericValue: 296

====

Examples of compounds with documented Papp B→A at 150 min, 2 μM follow.
- runDescription: Permeability test (MDR1-MDCKII monolayer cell model)
- Assay type: in vitro ADME
- testContext: dog, MDCK-MDR1, incubation 150 min, basal end to top

- compound: "O=C(O)c1cc2c(nc(CN3CC=C(c4cccc(OCc5ccc(Cl)cc5F)n4)CC3)n2C[C@@H]2CCO2)s1 [WXA005]"
  unitAbbreviation: "×10⁻⁶ cm/s"
  Papp B→A at 150 min, 2 μM: 8.49
- compound: "N#Cc1ccc(COc2cccc(C3=CCN(Cc4nc5sc(C(=O)O)cc5n4C[C@@H]4CCO4)CC3)n2)c(F)c1 [WXA001]"
  unitAbbreviation: "×10⁻⁶ cm/s"
  Papp B→A at 150 min, 2 μM: 3.87

====

- systemName: hERG potassium channel (Homo sapiens)
- Sequence (Q12809 whole entry): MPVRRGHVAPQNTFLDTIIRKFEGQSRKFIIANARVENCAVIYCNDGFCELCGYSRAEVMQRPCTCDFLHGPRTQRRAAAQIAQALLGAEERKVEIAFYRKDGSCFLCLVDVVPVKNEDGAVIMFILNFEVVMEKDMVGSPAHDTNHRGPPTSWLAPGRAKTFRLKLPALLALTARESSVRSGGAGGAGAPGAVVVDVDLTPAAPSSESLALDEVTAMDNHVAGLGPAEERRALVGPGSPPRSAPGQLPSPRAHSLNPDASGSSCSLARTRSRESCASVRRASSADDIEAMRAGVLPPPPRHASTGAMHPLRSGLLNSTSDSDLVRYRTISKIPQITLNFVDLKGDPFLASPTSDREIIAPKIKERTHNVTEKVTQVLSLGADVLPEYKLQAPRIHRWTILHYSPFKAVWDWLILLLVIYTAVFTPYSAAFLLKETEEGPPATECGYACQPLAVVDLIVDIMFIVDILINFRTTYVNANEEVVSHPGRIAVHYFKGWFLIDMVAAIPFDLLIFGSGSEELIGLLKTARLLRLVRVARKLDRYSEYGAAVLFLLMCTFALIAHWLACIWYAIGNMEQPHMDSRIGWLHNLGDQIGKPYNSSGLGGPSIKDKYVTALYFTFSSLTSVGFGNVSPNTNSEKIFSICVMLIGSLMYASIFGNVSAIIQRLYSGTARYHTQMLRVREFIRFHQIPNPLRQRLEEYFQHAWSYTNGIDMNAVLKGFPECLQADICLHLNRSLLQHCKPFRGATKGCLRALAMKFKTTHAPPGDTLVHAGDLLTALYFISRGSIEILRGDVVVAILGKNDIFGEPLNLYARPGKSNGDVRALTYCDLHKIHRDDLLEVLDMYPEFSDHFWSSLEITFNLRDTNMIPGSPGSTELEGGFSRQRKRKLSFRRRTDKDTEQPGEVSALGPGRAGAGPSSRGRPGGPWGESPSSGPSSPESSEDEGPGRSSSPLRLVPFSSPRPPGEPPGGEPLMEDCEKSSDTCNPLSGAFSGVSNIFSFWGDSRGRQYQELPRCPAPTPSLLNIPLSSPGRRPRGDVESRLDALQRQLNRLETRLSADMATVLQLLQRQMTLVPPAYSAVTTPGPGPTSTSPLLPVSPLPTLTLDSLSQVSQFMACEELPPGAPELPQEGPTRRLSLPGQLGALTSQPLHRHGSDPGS
- runDescription: hERG test (automatic patch clamp, CHO-hERG cells)
- testContext: hERG current, Qpatch
Recorded IC50 for the following molecules

- smiles: "N#Cc1ccc(COc2cccc(C3=CCN(Cc4nc5sc(C(=O)O)cc5n4C[C@@H]4CCO4)CC3)n2)c(F)c1"
  IC50: "> 40 µM"
- smiles: "O=C(O)c1cc2c(nc(CN3CC=C(c4cccc(OCc5ccc(Cl)cc5F)n4)CC3)n2C[C@@H]2CCO2)s1"
  IC50: "> 40 µM"

====

Entries annotated with measured bioavailability
- runDescription: DMPK study in cynomolgus monkey
- Type: in vivo
- testContext: plasma; male cynomolgus monkey, oral 3 mg/kg

- compound: "N#Cc1ccc(COc2cccc(C3=CCN(Cc4nc5sc(C(=O)O)cc5n4C[C@@H]4CCO4)CC3)n2)c(F)c1 [WXA001]"
  bioavailability, %: 5.6
- compound: "O=C(O)c1cc2c(nc(CN3CC=C(c4cccc(OCc5ccc(Cl)cc5F)n4)CC3)n2C[C@@H]2CCO2)s1 [WXA005]"
  bioavailability, %: 31

====

Quick list: EC50 per entry.
- systemName: Human-GLP1 (Homo sapiens, UniProt P43220)
- Construct: the earlier reading says HEK293
- Sequence (P43220 24-463): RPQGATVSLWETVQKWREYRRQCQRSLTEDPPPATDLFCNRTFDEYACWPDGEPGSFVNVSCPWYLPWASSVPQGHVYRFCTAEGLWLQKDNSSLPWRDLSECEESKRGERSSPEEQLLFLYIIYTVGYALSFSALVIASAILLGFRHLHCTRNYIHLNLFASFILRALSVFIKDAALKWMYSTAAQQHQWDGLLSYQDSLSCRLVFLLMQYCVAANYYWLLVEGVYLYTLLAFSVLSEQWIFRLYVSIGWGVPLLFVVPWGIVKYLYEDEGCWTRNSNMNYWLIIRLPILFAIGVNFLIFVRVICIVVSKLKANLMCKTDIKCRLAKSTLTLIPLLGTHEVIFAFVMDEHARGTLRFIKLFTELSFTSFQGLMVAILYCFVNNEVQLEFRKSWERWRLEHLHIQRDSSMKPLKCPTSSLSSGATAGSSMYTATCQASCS
- runDescription: In vitro cell activity test (cAMP detection, GLP-1 HEK293 cells)
- testContext: HEK293 cells expressing GLP-1 target

- compound: "O=C(O)c1cc2c(nc(CN3CC=C(c4cccc(OCc5ccc(Cl)cc5F)c4)CC3)n2C[C@@H]2CCO2)s1 [WXA011]"
  EC50, nM: 1.94
- compound: "O=C(O)c1sc2nc(CN3CC=C(c4cccc(OCc5ccc(Cl)cc5F)n4)CC3)n(C[C@@H]3CCO3)c2c1F [WXA007]"
  EC50, nM: 0.2
- compound: "N#Cc1ccc(COc2cccc(C3=CCN(Cc4nc5cc(C(=O)O)sc5n4C[C@@H]4CCO4)CC3)n2)c(F)c1 [WXA002]"
  EC50, nM: 2.7
- compound: "N#Cc1ccc(COc2cccc(C3=CCN(Cc4nc5sc(C(=O)O)cc5n4C[C@@H]4CCO4)CC3)c2)c(F)c1 [WXA013]"
  EC50, nM: 2.46
- compound: "N#Cc1ccc(COc2cccc(C3=CCN(Cc4nc5cc(C(=O)O)sc5n4C[C@@H]4CCO4)CC3)c2)c(F)c1 [WXA014]"
  EC50, nM: 9.6
- compound: "O=C(O)c1cc2c(nc(CN3CC=C(c4ccc(F)c(OCc5ccc(Cl)cc5F)n4)CC3)n2C[C@@H]2CCO2)s1 [WXA015]"
  EC50, nM: 1.64
- compound: "O=C(O)c1cc2nc(CN3CC=C(c4cccc(OCc5ccc(Cl)cc5F)n4)CC3)n(C[C@@H]3CCO3)c2s1 [WXA006]"
  EC50, nM: 1.44
- compound: "N#Cc1ccc(COc2cccc(C3CCN(Cc4nc5sc(C(=O)O)cc5n4C[C@@H]4CCO4)CC3)n2)c(F)c1 [WXA003]"
  EC50, nM: 1.07
- compound: "N#Cc1ccc(COc2cccc(C3CCN(Cc4nc5cc(C(=O)O)sc5n4C[C@@H]4CCO4)CC3)n2)c(F)c1 [WXA004]"
  EC50, nM: 1.9
- compound: "O=C(O)c1cc2nc(CN3CC=C(c4cccc(OCc5ccc(Cl)cc5F)c4)CC3)n(C[C@@H]3CCO3)c2s1 [WXA012]"
  EC50, nM: 9.4
- compound: "Cc1c(C(=O)O)sc2nc(CN3CC=C(c4cccc(OCc5ccc(Cl)cc5F)n4)CC3)n(C[C@@H]3CCO3)c12 [WXA008]"
  EC50, nM: 2.46
- compound: "N#Cc1ccc(COc2cccc(C3=CCN(Cc4nc5sc(C(=O)O)cc5n4C[C@@H]4CCO4)CC3)n2)c(F)c1 [WXA001]"
  EC50, nM: 0.67
- compound: "O=C(O)c1cc2nc(CN3CC=C(c4ccc(F)c(OCc5ccc(Cl)cc5F)n4)CC3)n(C[C@@H]3CCO3)c2s1 [WXA016]"
  EC50, nM: 3.52
